measuredTarget: T1, RBFOX1 RRM (Homo sapiens, UniProt Q9NWB1 109-208)
T1 sequence: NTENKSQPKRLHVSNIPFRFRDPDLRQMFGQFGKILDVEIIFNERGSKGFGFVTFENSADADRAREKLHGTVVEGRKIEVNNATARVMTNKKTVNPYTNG
testDescription: EMSA; HiTS-Eq, 1 nM pool, 10 min; buffer printed only for the single-RNA assays: 10 mM Tris pH 7.5, 150 mM NaCl, 3.4 mM EDTA, 0.001% NP-40, 30 C
testContext: tags: His6 N-terminal (pET28a); label: 5' 32P
Whole data set: some 16,000 sequences, median “ka relative to ugcaugu” near 0.0091, cut for the highest 2% near 0.032. This excerpt belongs to a sample that is enriched for the highest values.
Items are presented alongside their recorded binding signal.

>  <binder>
CCUAUUU (DNA:RNA) RNA: GGGAGACCGGAAUUCAGAUUGUCCCCUAUUUUUAAAUCCCGUCGUAGCCACCA DNA 1: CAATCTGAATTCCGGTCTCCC DNA 2: TGGTGGCTACGACGGGATT

>  <binding signal>
0.00115 KA relative to UGCAUGU

$$$$
>  <binder>
ACGAACG (DNA:RNA) RNA: GGGAGACCGGAAUUCAGAUUGUCCACGAACGUUAAAUCCCGUCGUAGCCACCA DNA 1: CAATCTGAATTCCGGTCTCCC DNA 2: TGGTGGCTACGACGGGATT

>  <binding signal>
0.0126 KA relative to UGCAUGU

$$$$
>  <binder>
AGUCCGC (DNA:RNA) RNA: GGGAGACCGGAAUUCAGAUUGUCCAGUCCGCUUAAAUCCCGUCGUAGCCACCA DNA 1: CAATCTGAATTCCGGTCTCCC DNA 2: TGGTGGCTACGACGGGATT

>  <binding signal>
0.0128 KA relative to UGCAUGU

$$$$

Give reported binding signal value for UAACCGC (DNA:RNA) RNA: GGGAGACCGGAAUUCAGAUUGUCCUAACCGCUUAAAUCCCGUCGUAGCCACCA DNA 1: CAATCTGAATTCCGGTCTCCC DNA 2: TGGTGGCTACGACGGGATT
0.0039 KA relative to UGCAUGU
